system: OVCAR-8 ovarian; assay: NCI tumour cell line growth inhibition, 48 h
Measured quantity: TGI

Molecule	TGI
CCOC(=O)/C=C(/OCC)[C@@H]1C(C(=O)c2ccc(Cl)cc2)[C@@H]1/C(=C\C(=O)OCC)OCC (some centres not stated)	> 100 µM

Data request: Suppose we examine the molecule CN1CCC(C(=O)Nc2n[nH]c3nnc(-c4ccccc4)cc23)CC1 ; what TGI value has been reported?
Data returned: > 25 µM

Data request: Suppose we examine the molecule CC(C)(C)[C@H]1NC(=O)CN1C(=O)OCc1ccccc1 ; what TGI value has been reported?
Data returned: > 100 µM

###

TGI reference
test system: SNB-19 CNS; test: NCI tumour cell line growth inhibition, 48 h

Molecule	Recorded result
CCOC(=O)CCC(C(=O)OCC)n1nnc2cc(Nc3c(C)[n+]([O-])c4cc(Cl)ccc4[n+]3[O-])ccc21 (centres undefined)	> 100 µM
COc1ccc(C2=NOC3=c4ccccc4=CSC3=C2c2ccccc2)cc1	> 100 µM
CCOC(=O)NCC(=O)NCC(=O)NCC(N)=O	> 100 µM
CC(CSc1nc2c(c(=N)n1-c1ccccc1)c(=S)n(-c1ccccc1)c(=S)n2-c1ccccc1)CN(C)C (centres undefined)	17.8 µM
CNc1ccc(CSc2ccc(C)cc2)cc1	> 100 µM
O=[N+]([O-])/C=C/c1cn(CCCCCCCCn2cc(/C=C/[N+](=O)[O-])c3ccccc32)c2ccccc12	> 10 µM

Data request: Suppose we examine the molecule COc1cc(C(=O)/C=C/c2c(C)n([O-])c3ccc(Cl)cc3[n+]2=O)cc(OC)c1OC ; what TGI value has been reported?
Data returned: > 100 µM

Data request: Suppose we examine the molecule COc1ccc(-c2nn(-c3cccc(Cl)c3)cc2-c2c(C#N)c(=O)n3[nH]c(-c4ccc(C)o4)nc3c2C#N)cc1 ; what TGI value has been reported?
Data returned: > 50 µM

Data request: Suppose we examine the molecule N=C(N)c1ccc(N=Nc2c(O)c(C(=O)Nc3ccccc3)cc3ccccc23)cc1 ; what TGI value has been reported?
Data returned: 51.5 µM
